The reported numbers originate from patent US10206394B2.

# Test system: Lolium perenne (LOLPE)
# test_description: Glasshouse assay for herbicidal activity (pre- and post-emergence), percentage phytotoxicity
# Format: in vivo
# condition_set: Lolium perenne, post-emergence, 360 h, 250 g/ha; post-emergence; 15 DAA; visual assessment (100%=total damage, 0%=no damage); read-out: Post-emergence herbicidal activity (percentage phytotoxicity) LOLPE POST

{"columns": ["compound", "unit_spec", "pest or weed control at 250 g/ha"],
 "data": [
  ["Cc1cc(C)c(C2C(=O)CC(CC(=O)N(C)C(C)(C)C)C2=O)c(C)c1 (centres unmarked)", "%", 90],
  ["Cc1cc(C)c(C2C(=O)CC(CC(=O)NC3(C)CCC3)C2=O)c(C)c1 (centres unmarked)", "%", 50],
  ["CONC(=O)CC1CC(=O)C(c2c(C)cc(C)cc2C)C1=O (centres unmarked)", "%", 80],
  ["COC(=O)c1cccc(CNC(=O)CC2CC(=O)C(c3c(C)cc(C)cc3C)C2=O)c1 (centres unmarked)", "%", 30],
  ["C#CCNC(=O)CC1CC(=O)C(c2c(C)cccc2CC)C1=O (centres unmarked)", "%", 90],
  ["C=CCNC(=O)CC1CC(=O)C(c2c(C)cc(C#CC)cc2C)C1=O (centres unmarked)", "%", 100],
  ["Cc1cc(-c2ncc(F)cc2F)cc(C)c1C1C(=O)CC(CC(=O)NCc2cccc(Br)c2)C1=O (centres unmarked)", "%", 100],
  ["Cc1cc(-c2ncc(Cl)cn2)cc(C)c1C1C(=O)C[C@@H](CC(=O)NC(C)(C)C)C1=O (some centres unmarked)", "%", 100]
]}

====

# Test system: Alopecurus myosuroides (ALOMY)
# test_description: Glasshouse assay for herbicidal activity (pre- and post-emergence), percentage phytotoxicity
# Assay type: in vivo
# condition_set: Alopecurus myosuroides, pre-emergence, 480 h, 250 g/ha; pre-emergence; 20 DAA; visual assessment (100%=total damage, 0%=no damage); read-out: Pre-emergence herbicidal activity (percentage phytotoxicity) ALOMY PRE
Measured pest or weed control at 250 g/ha values are reported for all entries that follow.

{"columns": ["compound", "pest or weed control at 250 g/ha, %"],
 "data": [
  ["Cc1cc(C)c(C2C(=O)CC(CC(=O)NC3(C4CC4)CC3)C2=O)c(C)c1 (stereo not shown)", 80],
  ["Cc1cc(-c2ncc(F)cc2F)cc(C)c1C1C(=O)C[C@@H](CC(=O)NC(C)(C)C)C1=O (stereo partly shown)", 90],
  ["CCCNC(=O)CC1CC(=O)C(c2c(C)cccc2CC)C1=O (stereo not shown)", 100],
  ["Cc1cc(C)c(C2C(=O)CC(CC(=O)NCc3cccc([N+](=O)[O-])c3)C2=O)c(C)c1 (stereo not shown)", 80]
]}

====

# System: Lolium perenne (LOLPE)
# test_description: Glasshouse assay for herbicidal activity (pre- and post-emergence), percentage phytotoxicity
# Assay type: in vivo
# condition_set: Lolium perenne, post-emergence, 360 h, POST-emergence, rate 250 g/ha, visual score 15 DAA (100%=total damage, 0%=no damage); read-out: Post-emergence herbicidal activity (percentage phytotoxicity) LOLPE POST

{"columns": ["molecule", "unit_spec", "pest or weed control at 250 g/ha"],
 "data": [
  ["COc1ccc(CNC(=O)CC2CC(=O)C(c3c(C)cc(OCC(F)(F)F)cc3C)C2=O)cc1 (stereo not shown)", "%", 90],
  ["C=CC(C)NC(=O)CC1CC(=O)C(c2c(C)cc(-n3cc(Cl)cn3)cc2C)C1=O (stereo not shown)", "%", 90],
  ["Cc1cc(-c2ccc(Br)cn2)cc(C)c1C1C(=O)CC(CC(=O)N2CCOCC2)C1=O (stereo not shown)", "%", 100],
  ["C/C=C/c1cc(C)c(C2C(=O)CC(CC(=O)NCC3CC3)C2=O)c(C)c1 (stereo not shown)", "%", 100],
  ["CC#Cc1cc(C)c(C2C(=O)CC(CC(=O)NCc3ccc(OC)cc3)C2=O)c(C)c1 (stereo not shown)", "%", 90],
  ["Cc1cc(-c2ncc(F)cn2)cc(C)c1C1C(=O)CC(CC(=O)NCc2cccc(F)c2)C1=O (stereo not shown)", "%", 100],
  ["C/C=C/c1cc(C)c(C2C(=O)CC(CC(=O)NCc3cccc(F)c3)C2=O)c(C)c1 (stereo not shown)", "%", 100],
  ["Cc1cc(-c2ncc(F)cc2F)cc(C)c1C1C(=O)CC(CC(=O)NCc2ccc(C#N)cn2)C1=O (stereo not shown)", "%", 70],
  ["Cc1cc(-c2ncc(F)cn2)cc(C)c1C1C(=O)CC(CC(=O)NCc2ccc(C#N)cc2)C1=O (stereo not shown)", "%", 80],
  ["Cc1cc(-c2ncc(F)cn2)cc(C)c1C1C(=O)CC(CC(=O)NC2CC2F)C1=O (stereo not shown)", "%", 90],
  ["C/C=C/c1cc(C)c(C2C(=O)CC(CC(=O)NCc3ccc(C#N)cc3)C2=O)c(CC)c1 (stereo not shown)", "%", 90],
  ["C=CC(C)NC(=O)CC1CC(=O)C(c2c(C)cc(-c3ncc(F)cn3)cc2C)C1=O (stereo not shown)", "%", 100],
  ["C/C=C/c1cc(C)c(C2C(=O)CC(CC(=O)NCc3ccc(OC)cc3)C2=O)c(C)c1 (stereo not shown)", "%", 70],
  ["Cc1cc(-c2ncc(F)cc2F)cc(C)c1C1C(=O)CC(CC(=O)NC/C=C/Cl)C1=O (stereo not shown)", "%", 100],
  ["C=CCNC(=O)CC1CC(=O)C(c2c(C)cc(/C=C/C)cc2CC)C1=O (stereo not shown)", "%", 100],
  ["C#CCN(C)C(=O)CC1CC(=O)C(c2c(C)cc(/C=C/C)cc2C)C1=O (stereo not shown)", "%", 100]
]}

====

# System: Alopecurus myosuroides (ALOMY)
# test_description: Glasshouse assay for herbicidal activity (pre- and post-emergence), percentage phytotoxicity
# Type: in vivo
# condition_set: Alopecurus myosuroides, pre-emergence, 480 h, 250 g/ha; pre-emergence; 20 DAA; visual assessment (100%=total damage, 0%=no damage); read-out: Pre-emergence herbicidal activity (percentage phytotoxicity) ALOMY PRE
Measured pest or weed control at 250 g/ha values are reported for all entries that follow.

{"columns": ["molecule", "pest or weed control at 250 g/ha [%]"],
 "data": [
  ["Cc1cc(C)c(C2C(=O)CC(CC(=O)NCc3ccccc3C)C2=O)c(C)c1 (stereo not shown)", 70],
  ["C=CCNC(=O)CC1CC(=O)C(c2c(C)cc(-c3ncc(Cl)cc3F)cc2C)C1=O (stereo not shown)", 100],
  ["CCCN(CC1CC1)C(=O)CC1CC(=O)C(c2c(C)cc(C)cc2C)C1=O (stereo not shown)", 60],
  ["Cc1cc(-c2ccc(C#N)cn2)cc(C)c1C1C(=O)CC(CC(=O)NC(C)(C)C)C1=O (stereo not shown)", 100],
  ["COc1ccc(CNC(=O)CC2CC(=O)C(c3c(C)cc(-c4ncc(F)cc4F)cc3C)C2=O)cc1 (stereo not shown)", 80],
  ["Cc1cc(C)c(C2C(=O)CC(CC(=O)NCc3cccc(C#N)c3)C2=O)c(C)c1 (stereo not shown)", 70],
  ["COCCCNC(=O)CC1CC(=O)C(c2c(C)cc(-c3ncc(Cl)cc3F)cc2C)C1=O (stereo not shown)", 100],
  ["Cc1cc(OCC(F)(F)F)cc(C)c1C1C(=O)CC(CC(N)=O)C1=O (stereo not shown)", 90],
  ["C/C=C/c1cc(C)c(C2C(=O)CC(CC(=O)N3CCOCC3)C2=O)c(CC)c1 (stereo not shown)", 20],
  ["C=C(C)CNC(=O)CC1CC(=O)C(c2c(C)cc(-c3ncc(Cl)cc3F)cc2C)C1=O (stereo not shown)", 100],
  ["Cc1cc(C)c(C2C(=O)CC(CC(=O)NCc3cccc(F)c3)C2=O)c(C)c1 (stereo not shown)", 80],
  ["Cc1cc(-c2ncc(F)cn2)cc(C)c1C1C(=O)CC(CC(N)=O)C1=O (stereo not shown)", 60],
  ["CCC(C)NC(=O)CC1CC(=O)C(c2c(C)cc(-c3ncc(Cl)cc3F)cc2C)C1=O (stereo not shown)", 100],
  ["Cc1cc(C)c(C2C(=O)CC(CC(=O)NC3CC3C(F)(F)F)C2=O)c(C)c1 (stereo not shown)", 80],
  ["Cc1cc(-c2ncc(F)cc2F)cc(C)c1C1C(=O)CC(CC(=O)NCc2cccc(C(F)(F)F)c2)C1=O (stereo not shown)", 90],
  ["C#Cc1cccc(CNC(=O)CC2CC(=O)C(c3c(C)cc(C)cc3C)C2=O)c1 (stereo not shown)", 70]
]}

====

# System: Lolium perenne (LOLPE)
# test_description: Glasshouse assay for herbicidal activity (pre- and post-emergence), percentage phytotoxicity
# Assay type: in vivo
# condition_set: Lolium perenne, post-emergence, 360 h, 250 g/ha; post-emergence; 15 DAA; visual assessment (100%=total damage, 0%=no damage); read-out: Post-emergence herbicidal activity (percentage phytotoxicity) LOLPE POST
# Protocol: Test—Glasshouse Assay for Herbicidal Activity Seeds of a variety of monocotyledonous and dicotyledonous test plants are sown in standard soil in pots. The plants are cultivated for one day (for pre-emergence (PRE)) or for about 12 days (for post-emergence (POST)) under controlled conditions in a glasshouse (warm climate species at 24/18° C., cool climate species at 20/16° C., both at day/night; 16 hours light; 65% humidity). […]
Measured pest or weed control at 250 g/ha values are reported for all entries that follow.
measurement_type: pest or weed control at 250 g/ha (%)

{"columns": ["compound", "study_target", "measurement_type", "measured_result"],
 "data": [
  ["C#CCN(CC#C)C(=O)CC1CC(=O)C(c2c(C)cc(C)cc2C)C1=O (centres unmarked) [Compound B45]", "Lolium perenne (LOLPE)", "pest or weed control at 250 g/ha", 80],
  ["Cc1cc(C)c(C2C(=O)CC(CC(=O)NC(C)C(F)(F)F)C2=O)c(C)c1 (centres unmarked) [Compound B63]", "Lolium perenne (LOLPE)", "pest or weed control at 250 g/ha", 70],
  ["Cc1cc(-c2ncccc2F)cc(C)c1C1C(=O)CC(CC(=O)NC(C)(C)C)C1=O (centres unmarked) [Compound B84]", "Lolium perenne (LOLPE)", "pest or weed control at 250 g/ha", 100],
  ["C#CC(C)(C)NC(=O)CC1CC(=O)C(c2c(C)cc(-c3ncc(F)cn3)cc2C)C1=O (centres unmarked) [Compound B113]", "Lolium perenne (LOLPE)", "pest or weed control at 250 g/ha", 100],
  ["Cc1cc(-c2ncc(Cl)cc2F)cc(C)c1C1C(=O)CC(CC(=O)NCC2CC2C(F)F)C1=O (centres unmarked) [Compound B143]", "Lolium perenne (LOLPE)", "pest or weed control at 250 g/ha", 100],
  ["CC#CC(C)(C)NC(=O)CC1CC(=O)C(c2c(C)cc(C)cc2C)C1=O (centres unmarked) [Compound B35]", "Lolium perenne (LOLPE)", "pest or weed control at 250 g/ha", 70],
  ["C=CCNC(=O)CC1CC(=O)C(c2c(C)cc(Br)cc2C)C1=O (centres unmarked) [Compound B117]", "Lolium perenne (LOLPE)", "pest or weed control at 250 g/ha", 70],
  ["Cc1cc(C)c(C2C(=O)CC(CC(=O)NC3CC3C(F)(F)F)C2=O)c(C)c1 (centres unmarked) [Compound B97]", "Lolium perenne (LOLPE)", "pest or weed control at 250 g/ha", 70]
]}
